target: T1, wild type full length EGFR purified from A431 cells (human, UniProt P00533 25-1210); experiment: competition ELISA, competitor ICR10; set-up: concentration or dose not given beside the values
T1 construct: mature; Bought; coated on ELISA wells; also called full length EGFR receptor antigen; Sigma E3641
Quantity measured: % inhibition (%)
Give the value, in units of %, as a plain number.

Recorded % inhibition for antibody 1042 (antibody, human IgG1, kappa, V domains shown, Chimeric IgG1 kappa; RA- left out of the VH entry) VH: QVQLQQPGAELVKPGASVKLSCKASGYTFTSHWMHWVQQRPGQGLEWIGEIHPSNGRTNYNEKFKNKATLTVDKSPSTAYMQLSSLTSEDSAVYYCARYYGYDDAMDYWGQGTSVTVSS VL: DIVMTQAAFSNPVTLGTSASISCRSSKSLLHSNGITYLYWYLQKPGQSPQLLIYQMSNLASGVPDRFSSSGSRTDFTLRISRVEAEDVGVYYCAQNLELPYTFGGGTKLEIKR , please?
-7

Reported % inhibition for antibody 1284 (antibody, human IgG1, kappa, V domains shown, Chimeric IgG1 kappa) VH: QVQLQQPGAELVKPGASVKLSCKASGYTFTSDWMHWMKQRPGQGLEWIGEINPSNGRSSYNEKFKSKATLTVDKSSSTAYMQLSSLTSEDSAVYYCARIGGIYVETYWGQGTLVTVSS VL: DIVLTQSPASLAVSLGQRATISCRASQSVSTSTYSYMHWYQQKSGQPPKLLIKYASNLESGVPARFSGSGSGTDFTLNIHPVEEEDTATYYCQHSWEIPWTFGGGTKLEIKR : what is it?
88

% inhibition for antibody 1030 (antibody, human IgG1, kappa, V domains shown, Chimeric IgG1 kappa) VH: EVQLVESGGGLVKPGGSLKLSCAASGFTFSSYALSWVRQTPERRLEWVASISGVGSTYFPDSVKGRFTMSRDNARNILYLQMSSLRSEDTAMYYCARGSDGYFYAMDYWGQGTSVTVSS VL: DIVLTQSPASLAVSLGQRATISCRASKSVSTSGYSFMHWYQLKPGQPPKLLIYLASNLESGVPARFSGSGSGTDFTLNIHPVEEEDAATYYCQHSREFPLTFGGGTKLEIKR ?
12

Param item = antibody 1344 (antibody, human IgG1, kappa, V domains shown, Chimeric IgG1 kappa) VH: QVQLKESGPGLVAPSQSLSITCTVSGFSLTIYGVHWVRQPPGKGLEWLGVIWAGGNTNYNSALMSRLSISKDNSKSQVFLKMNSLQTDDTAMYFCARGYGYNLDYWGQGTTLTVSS VL: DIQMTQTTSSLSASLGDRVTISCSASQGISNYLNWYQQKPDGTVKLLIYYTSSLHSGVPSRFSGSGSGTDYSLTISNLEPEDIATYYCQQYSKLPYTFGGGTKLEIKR ; retrieve measured % inhibition.
82

Which % inhibition is listed for antibody 992 (antibody, human IgG1, kappa, V domains shown, Chimeric mouse/human IgG1 kappa; the VL entry includes the human kappa constant region) VH: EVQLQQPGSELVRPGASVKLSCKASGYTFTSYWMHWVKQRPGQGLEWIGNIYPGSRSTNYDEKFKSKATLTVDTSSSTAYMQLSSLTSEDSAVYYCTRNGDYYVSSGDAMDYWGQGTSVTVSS VL: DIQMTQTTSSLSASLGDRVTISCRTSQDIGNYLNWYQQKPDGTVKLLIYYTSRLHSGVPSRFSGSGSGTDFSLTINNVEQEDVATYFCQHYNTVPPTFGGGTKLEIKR ?
-20

Cited source for all entries: patent US20110135636A1
